Provenance of the data: PubChem BioAssay (NCI)

Known TGI of a selection of molecules
System: UO-31 renal
Procedure Summary: NCI tumour cell line growth inhibition, 48 h
Where a SMILES comes first, the peptide text is derived from it. [ ]: non-standard residue; d: D form. The star is where a group is joined. ξ: configuration not given here. NMeY = CN[C@@H](Cc1ccc(O)cc1)C(=O)O; Cbz = O=C(OCc1ccccc1)*; ξA = CC(N)C(=O)O

Solved cases below.
CCCCC[C@H](O)[C@H](C)C=C1SCCCS1 = > 100 µM
Cc1nnc([S-])s1.[Au+].c1ccc([PH+](c2ccccc2)c2ccccc2)cc1 = 2.99 µM
Cc1c(C(C)C)cc(OCCO)cc1C(C)C = > 100 µM
COc1ccc(C[C@@H](C(=O)NCC(N)=O)N(C)C(=O)[C@@H]2CCCN2C(=O)[C@H](CC(C)C)NC(=O)C(C)NC(=O)OCc2ccccc2)cc1 (some centres undefined) (Cbz-[ξA]LP[NMeY](Me)G-NH2) = > 100 µM
Cc1nc2c(n1Cc1ccc(Cl)cc1)C(=O)c1ccccc1C2=O = > 75 µM
Oc1ccc(-c2c3c(nc4c2CCc2ccc(Br)cc2-4)-c2cc(Br)ccc2CC3)cc1 = 38.4 µM

(Q) Consider the molecule COc1ccccc1C(=O)c1cnc(NC2CCN(S(C)(=O)=O)CC2)nc1N and give its measured TGI.
(A) > 25 µM

(Q) Which TGI value belongs to CC(=O)N(C(C)=O)n1c(Cc2ccc(Cl)cc2)nn(C(C)=O)c1=O ?
(A) > 100 µM

(Q) // lookup TGI for Cc1nn(-c2ccccc2)c2c1C1C(=C(c3ccc(Cl)cc3)N2)C(=O)Nc2ccccc21 (centres undefined)
(A) 30.3 µM

###

# Lookup of reported TGI keyed by entry
Test system: TK-10 renal
Procedure Summary: NCI tumour cell line growth inhibition, 48 h

Worked cases, answers included:
COC(=O)Cc1c(C2=Nc3ccccc3C2(O)CC(=O)OC)[nH]c2ccccc12 (stereo not drawn) = > 100 µM
CC1(C)OC[C@@H](/C=C\CCO[Si](c2ccccc2)(c2ccccc2)C(C)(C)C)N1C(=O)c1ccccc1 = > 100 µM
CC(=O)N(C(C)=O)n1c(Cc2ccc(Cl)cc2)nn(C(C)=O)c1=O = > 100 µM
O=C(N[C@@H]1CCCc2ccccc21)[C@H](CCC(=O)N1CCN(C2CCCCC2)CC1)N1C(=O)[C@@H](N2C(=O)OC[C@@H]2c2ccccc2)[C@H]1/C=C/c1ccccc1 = 6.01 µM
CCCCc1ccc2[n+](c1)C(C(=O)OCC)=PC2 (stereo not drawn) = > 100 µM

(Q) # get_value(readout='TGI', item= CCCCCCCCCCCCCCCC[N+]1(CC)CCCC1 )
(A) 1.21 µM

(Q) Which TGI is reported for this compound? Cc1cc(S(=O)(=O)Nc2n[nH]c(Nc3ccccc3)n2)c(S)cc1Cl
(A) > 10 µM

(Q) Any idea what its TGI is? The compound is COc1ccc(C[C@H]2C[C@@H](O)[C@@H](C)C/C=C/Cc3cccc(O)c3C(=O)O2)cn1
(A) 72.3 µM

###

Tested on: OVCAR-3 ovarian
Procedure Summary: NCI tumour cell line growth inhibition, 48 h
// reported GI50 for each item listed

Observe how each entry below is paired with its result.
COc1ccc2nc3ccc(OC)cc3c(SCCCN)c2c1 = 2730 nM
Cc1ccc([P+](Cc2ccc([N+](=O)[O-])cc2)(c2ccc(C)cc2)c2ccc(C)cc2)cc1 = 1710 nM
CC(C)(C)n1cc(-c2ccnc(NCCNS(=O)(=O)c3ccc(Br)cc3)c2)c(-c2cccc(O)c2)n1 = 1850 nM
CCCCCCCCCCCCCCCC[N+]1(CC)CCCC1 = 478 nM

Please look at the following compound next.
(Q) Fill in the blank: the reported GI50 of N#CC1c2ccccc2-c2ccccc2N1C(=O)c1ccccc1 (stereo not given) is ____.
(A) 748 nM
